# EXPERIMENT: Pharmacokinetics in female BALB/c nude mice bearing A375 xenografts, 1 day dosing (PK and PD study): plasma, tumor and brain concentrations, AUC
# Format: in vivo
# RUN PARAMETERS: mouse, plasma, po, 1 mg/kg, 1 mg/kg p.o. TID × 1 day; post 3rd dose; 1 h; read-out: Mean Concentration in Plasma ± SEM
MEASURED QUANTITY: concentration at 1 h

{"COMPOUND": "CCN(C)S(=O)(=O)Nc1ccc(F)c(Oc2ccc3ncn(C4CC5(CCN(C6CC7(C6)CN(c6cc8c(cc6F)c(N6CCC(=O)NC6=O)nn8C)C7)CC5)C4)c(=O)c3c2)c1C#N (stereo not shown) [Compound 141]", "MEASURED QUANTITY": "concentration at 1 h", "RESULT": "664 ng/mL"}

----------
# EXPERIMENT: Example 6 pharmacokinetics assay for PKPD study (plasma, tumor, liver)
# Format: in vivo, BALB/c nude mice
# RUN PARAMETERS: mouse, tumor, po; 100 mg/kg, single dose; 6 h; read-out: Concentration in Tumor (mean ± SEM)
MEASURED QUANTITY: concentration at 6 h (ng/g)

{"COMPOUND": "CC(C)(C)c1nc(-c2cccc(NS(=O)(=O)c3c(F)cccc3F)c2F)c(-c2ccnc(N)n2)s1 [Dabrafenib, dabrafenib, reference compound]", "NUMERIC VALUE": 32.8}

----------
# EXPERIMENT: Pharmacokinetics in female BALB/c nude mice bearing A375 xenografts, 1 day dosing (PK and PD study): plasma, tumor and brain concentrations, AUC
# Format: in vivo
# RUN PARAMETERS: mouse, plasma, po, 1.5 mg/kg, Compound 141; 1.5 mg/kg p.o. BID × 1 day; post 2nd dose; 1 h; read-out: Mean Concentration in Plasma ± SEM
# Description: The concentrations of Dabrafenib, Compound 26 and Compound 141 in the treatment of female BALB/c nude mice bearing A375 xenografts are shown in Table 62-Table 72 and FIG. 52-FIG. 73.
MEASURED QUANTITY: concentration at 1 h (ng/mL)

{"COMPOUND": "CCN(C)S(=O)(=O)Nc1ccc(F)c(Oc2ccc3ncn(C4CC5(CCN(C6CC7(C6)CN(c6cc8c(cc6F)c(N6CCC(=O)NC6=O)nn8C)C7)CC5)C4)c(=O)c3c2)c1C#N (stereo not shown) [Compound 141]", "NUMERIC VALUE": 1560}

----------
# EXPERIMENT: Example 7 pharmacokinetics assay for PKPD study (plasma, tumor, liver)
# Format: in vivo, BALB/c nude mice
# RUN PARAMETERS: mouse, liver, po; 100 mg/kg, p.o., single dose; 12 h; read-out: Concentration in Liver (mean ± SEM)
MEASURED QUANTITY: concentration at 12 h (ng/g)

{"COMPOUND": "CC(C)(C)c1nc(-c2cccc(NS(=O)(=O)c3c(F)cccc3F)c2F)c(-c2ccnc(N)n2)s1 [Dabrafenib, dabrafenib, reference compound]", "MEASURED QUANTITY": "concentration at 12 h", "NUMERIC VALUE": 1110}

----------
# EXPERIMENT: Example 7 pharmacokinetics assay for PKPD study (plasma, tumor, liver)
# Format: in vivo, BALB/c nude mice
# RUN PARAMETERS: mouse, liver, po; 10 mg/kg, p.o., single dose; 6 h; read-out: Concentration in Liver (mean ± SEM)

{"COMPOUND": "CCN(C)S(=O)(=O)Nc1ccc(F)c(Oc2ccc3ncn(C4CC5(CCN(C6CC7(C6)CN(c6cc8c(cc6F)c(N6CCC(=O)NC6=O)nn8C)C7)CC5)C4)c(=O)c3c2)c1C#N (stereo not shown) [Compound 141]", "OUTPUT UNIT": "ng/g", "concentration at 6 h": 9730}
{"COMPOUND": "CCN(C)S(=O)(=O)Nc1ccc(F)c(Oc2ccc3ncc(C4CC5(CCN(C6CCC(c7cc8c(cc7F)c(N7CCC(=O)NC7=O)nn8C)CC6)CC5)C4)nc3c2)c1C#N (single isomer, unassigned) [Compound 180]", "OUTPUT UNIT": "ng/g", "concentration at 6 h": 712}
{"COMPOUND": "CCN(C)S(=O)(=O)Nc1ccc(F)c(Oc2ccc3ncn(C4CC5(CCN(C6CCN(c7cc8c(cc7F)c(N7CCC(=O)NC7=O)nn8C)CC6)CC5)C4)c(=O)c3c2)c1C#N [Compound 156]", "OUTPUT UNIT": "ng/g", "concentration at 6 h": 1460}
{"COMPOUND": "CCN(C)S(=O)(=O)Nc1ccc(F)c(Oc2ccc3ncc(OCC4CCN(C5CCC(c6cc7c(cc6F)c(N6CCC(=O)NC6=O)nn7C)CC5)CC4)nc3c2)c1C#N (single isomer, unassigned) [Compound 118]", "OUTPUT UNIT": "ng/g", "concentration at 6 h": 103000}

----------
# EXPERIMENT: Pharmacokinetics in female BALB/c nude mice bearing A375 xenografts, 1 day dosing (PK and PD study): plasma, tumor and brain concentrations, AUC
# Type: in vivo
# RUN PARAMETERS: mouse, plasma, po, 6 mg/kg, 6 mg/kg p.o. QD × 1 day; 48 h; read-out: Mean Concentration in Plasma ± SEM
# From the text: The concentrations of Dabrafenib, Compound 26 and Compound 141 in the treatment of female BALB/c nude mice bearing A375 xenografts are shown in Table 62-Table 72 and FIG. 52-FIG. 73.
MEASURED QUANTITY: concentration at 48 h

{"SMILES STR": "CCN(C)S(=O)(=O)Nc1ccc(F)c(Oc2ccc3ncn([C@H]4COC5(CCN(C6CC7(C6)CN(c6cc8c(cc6F)c(N6CCC(=O)NC6=O)nn8C)C7)CC5)C4)c(=O)c3c2)c1C#N", "RESULT": "1.07 ng/mL"}

----------
# EXPERIMENT: Pharmacokinetics after 21 days dosing in the efficacy study (plasma, tumor and brain concentrations; plasma AUC at steady state), Example 14
# Format: in vivo, female BALB/c nude mice
# RUN PARAMETERS: mouse, plasma, po; 3 mg/kg p.o. BID x 21 days; 1 h; mean ± SEM

{"SMILES STR": "CCN(C)S(=O)(=O)Nc1ccc(F)c(Oc2ccc3ncn([C@H]4COC5(CCN(C6CC7(C6)CN(c6cc8c(cc6F)c(N6CCC(=O)NC6=O)nn8C)C7)CC5)C4)c(=O)c3c2)c1C#N", "OUTPUT UNIT": "µg/mL", "concentration at 1 h": 5.83}

----------
# EXPERIMENT: Example 8 pharmacokinetics assay for PKPD study (plasma, tumor, liver)
# Format: in vivo, BALB/c nude mice
# RUN PARAMETERS: mouse, plasma, po, 10 mg/kg, p.o., single dose; 1 h; read-out: Concentration in Plasma (mean ± SEM)

{"MOLECULE": "CCN(C)S(=O)(=O)Nc1ccc(F)c(Oc2ccc3ncn([C@H]4COC5(CCC(N6CCC(c7cc8c(cc7F)c(N7CCC(=O)NC7=O)nn8C)C(F)(F)C6)CC5)C4)c(=O)c3c2)c1C#N (single isomer, unassigned)", "OUTPUT UNIT": "ng/mL", "concentration at 1 h": 32000}
{"MOLECULE": "CCN(C)S(=O)(=O)Nc1ccc(F)c(Oc2ccc3ncn(C4CC5(CCN(C6CCC(c7cc8c(cc7F)c(N7CCC(=O)NC7=O)nn8C)CC6)CC5)C4)c(=O)c3c2)c1C#N (single isomer, unassigned)", "OUTPUT UNIT": "ng/mL", "concentration at 1 h": 2940}
{"MOLECULE": "CCN(C)S(=O)(=O)Nc1ccc(F)c(Oc2ccc3ncn([C@H]4COC5(CCN(C6CC7(C6)CN(c6cc8c(cc6F)c(N6CCC(=O)NC6=O)nn8C)C7)CC5)C4)c(=O)c3c2)c1C#N", "OUTPUT UNIT": "ng/mL", "concentration at 1 h": 29100}

----------
# EXPERIMENT: Example 7 pharmacokinetics assay for PKPD study (plasma, tumor, liver)
# Format: in vivo, BALB/c nude mice
# RUN PARAMETERS: mouse, tumor, po; 10 mg/kg, p.o., single dose; 1 h; read-out: Concentration in Tumor (mean ± SEM)
concentration at 1 h values, listed per item
MEASURED QUANTITY: concentration at 1 h (ng/g)

{"COMPOUND": "CCN(C)S(=O)(=O)Nc1ccc(F)c(Oc2ccc3ncc(C4CC5(CCN(C6CCC(c7cc8c(cc7F)c(N7CCC(=O)NC7=O)nn8C)CC6)CC5)C4)nc3c2)c1C#N (single isomer, unassigned)", "NUMERIC VALUE": 680}
{"COMPOUND": "CCN(C)S(=O)(=O)Nc1ccc(F)c(Oc2ccc3ncn(C4CC5(CCN(C6CCN(c7cc8c(cc7F)c(N7CCC(=O)NC7=O)nn8C)CC6)CC5)C4)c(=O)c3c2)c1C#N", "NUMERIC VALUE": 758}
{"COMPOUND": "CCN(C)S(=O)(=O)Nc1ccc(F)c(Oc2ccc3ncn(C4CC5(CCN(C6CC7(C6)CN(c6cc8c(cc6F)c(N6CCC(=O)NC6=O)nn8C)C7)CC5)C4)c(=O)c3c2)c1C#N (stereo not shown)", "NUMERIC VALUE": 2120}
{"COMPOUND": "CCN(C)S(=O)(=O)Nc1ccc(F)c(Oc2ccc3ncc(OCC4CCN(C5CCC(c6cc7c(cc6F)c(N6CCC(=O)NC6=O)nn7C)CC5)CC4)nc3c2)c1C#N (single isomer, unassigned)", "NUMERIC VALUE": 345}

Recorded values, source patent US20260297060A1.
